# Target System: huCMKLR1 (Homo sapiens)
# Method Summary: Calcium mobilization assay
# Setup Conditions: HEK293a huCMKLR1 Gα16 cells, Fluo-4 AM; three independent experiments, mean ± SD; read-out: Ca^2+ assay EC50
# Protocol: For in vitro analysis, HEK293a stably transfected with huCMKLR1 and Gα16 were used. […] Optical ViewPlate 96-well microplates (PerkinElmer, Waltham, USA) were coated with poly-D-lysine (10 µg/mL, 50 µL/well) for 30 minutes at 37 °C, washed with PBS and air dried before seeding 40,000 HEK293a huCMKLR1 Gα16 cells per well. […] Obtained raw data were analyzed using AssayPro (PerkinElmer, Waltham, USA). […]
*1 amine or outer side, *2 acyl side, *3 side chain or, on linkers, in order; H or OH if unused. Where a SMILES comes first, the peptide text is derived from it. [ ]: non-standard residue; d: D form. The star is where a group is joined. DOTA = O=C(O)CN1CCN(CC(=O)O)CCN(CC(=O)*)CCN(CC(=O)O)CC1; NH(CH2)9CO = O=C(CCCCCCCCCN[*:1])[*:2]; Hyp = O=C(O)[C@@H]1C[C@@H](O)CN1; Tic = O=C(O)[C@@H]1Cc2ccccc2CN1; Cha = N[C@@H](CC1CCCCC1)C(=O)O; Cit = NC(=O)NCCC[C@H](N)C(=O)O; Ahx = NCCCCCC(=O)O
Measured Metric: EC50 (pM)

{"Compound": "C[C@@H](NC(=O)[C@H](Cc1ccccc1)NC(=O)[C@H](CCCNC(N)=O)NC(=O)CNC(=O)[C@@H]1C[C@@H](O)CN1C(=O)[C@H](CC1CCCCC1)NC(=O)[C@H](Cc1ccc(O)cc1)NC(=O)CCCCCNC(=O)CN1CCN(CC(=O)O)CCN(CC(=O)O)CCN(CC(=O)O)CC1)C(=O)N1Cc2ccccc2C[C@H]1C(=O)N[C@@H](CO)C(=O)O [DOTA-AHX-CG34] ({DOTA-Ahx}-Y[Cha][Hyp]G[Cit]F[dA][Tic]S-OH)", "Measured Metric": "EC50", "Observed": 790}
{"Compound": "C[C@@H](NC(=O)[C@H](Cc1ccccc1)NC(=O)[C@H](CCCNC(N)=O)NC(=O)CNC(=O)[C@@H]1C[C@@H](O)CN1C(=O)[C@H](CC1CCCCC1)NC(=O)[C@H](Cc1ccc(O)cc1)NC(=O)CCCCCCCCCNC(=O)CN1CCN(CC(=O)O)CCN(CC(=O)O)CCN(CC(=O)O)CC1)C(=O)N1Cc2ccccc2C[C@H]1C(=O)N[C@@H](CO)C(=O)O [DOTA-ADX-CG34] ({DOTA}-[NH(CH2)9CO]Y[Cha][Hyp]G[Cit]F[dA][Tic]S-OH)", "Measured Metric": "EC50", "Observed": 650}

---

Protein target, amino acids: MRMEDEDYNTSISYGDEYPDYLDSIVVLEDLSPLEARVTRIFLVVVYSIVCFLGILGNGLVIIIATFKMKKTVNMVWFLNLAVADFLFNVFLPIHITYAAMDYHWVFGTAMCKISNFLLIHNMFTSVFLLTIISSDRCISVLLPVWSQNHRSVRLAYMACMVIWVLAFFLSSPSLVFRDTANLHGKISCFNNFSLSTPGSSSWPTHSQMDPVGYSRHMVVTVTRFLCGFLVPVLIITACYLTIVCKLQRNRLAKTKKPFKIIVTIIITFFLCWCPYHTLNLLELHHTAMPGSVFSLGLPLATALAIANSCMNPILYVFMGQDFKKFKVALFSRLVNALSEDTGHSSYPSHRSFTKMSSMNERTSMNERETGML
*1 amine or outer side, *2 acyl side, *3 side chain or, on linkers, in order; H or OH if unused. Where a SMILES comes first, the peptide text is derived from it. [ ]: non-standard residue; d: D form. The star is where a group is joined. DOTA = O=C(O)CN1CCN(CC(=O)O)CCN(CC(=O)*)CCN(CC(=O)O)CC1; NH(CH2)9CO = O=C(CCCCCCCCCN[*:1])[*:2]; Hyp = O=C(O)[C@@H]1C[C@@H](O)CN1; Tic = O=C(O)[C@@H]1Cc2ccccc2CN1; Cha = N[C@@H](CC1CCCCC1)C(=O)O; Cit = NC(=O)NCCC[C@H](N)C(=O)O; Ahx = NCCCCCC(=O)O
Measured IC50, listed per entry.

{"Compound": "CSCC[C@H](NC(=O)CNC(=O)[C@@H]1CCCN1C(=O)[C@H](CC1CCCCC1)NC(=O)[C@@H](N)Cc1ccc(O)cc1)C(=O)N[C@@H](Cc1ccc(O)cc1)C(=O)N[C@@H](C)C(=O)N[C@@H](Cc1ccccc1)C(=O)N[C@H](Cc1ccccc1)C(=O)O [CG36] (H-Y[Cha]PGMYAF[dF]-OH)", "IC50": "0.1 nM"}
{"Compound": "C[C@@H](NC(=O)[C@H](Cc1ccccc1)NC(=O)[C@H](CCCNC(N)=O)NC(=O)CNC(=O)[C@@H]1C[C@@H](O)CN1C(=O)[C@H](CC1CCCCC1)NC(=O)[C@H](Cc1ccc(O)cc1)NC(=O)CCCCCCCCCNC(=O)CN1CCN(CC(=O)O)CCN(CC(=O)O)CCN(CC(=O)O)CC1)C(=O)N1Cc2ccccc2C[C@H]1C(=O)N[C@@H](CO)C(=O)O [DOTA-ADX-CG34] ({DOTA}-[NH(CH2)9CO]Y[Cha][Hyp]G[Cit]F[dA][Tic]S-OH)", "IC50": "0.65 nM"}
{"Compound": "C[C@@H](NC(=O)[C@H](Cc1ccccc1)NC(=O)[C@H](CCCNC(N)=O)NC(=O)CNC(=O)[C@@H]1C[C@@H](O)CN1C(=O)[C@H](CC1CCCCC1)NC(=O)[C@H](Cc1ccc(O)cc1)NC(=O)CCCCCNC(=O)CN1CCN(CC(=O)O)CCN(CC(=O)O)CCN(CC(=O)O)CC1)C(=O)N1Cc2ccccc2C[C@H]1C(=O)N[C@@H](CO)C(=O)O [DOTA-AHX-CG34] ({DOTA-Ahx}-Y[Cha][Hyp]G[Cit]F[dA][Tic]S-OH)", "IC50": "1.05 nM"}

---

Target chain: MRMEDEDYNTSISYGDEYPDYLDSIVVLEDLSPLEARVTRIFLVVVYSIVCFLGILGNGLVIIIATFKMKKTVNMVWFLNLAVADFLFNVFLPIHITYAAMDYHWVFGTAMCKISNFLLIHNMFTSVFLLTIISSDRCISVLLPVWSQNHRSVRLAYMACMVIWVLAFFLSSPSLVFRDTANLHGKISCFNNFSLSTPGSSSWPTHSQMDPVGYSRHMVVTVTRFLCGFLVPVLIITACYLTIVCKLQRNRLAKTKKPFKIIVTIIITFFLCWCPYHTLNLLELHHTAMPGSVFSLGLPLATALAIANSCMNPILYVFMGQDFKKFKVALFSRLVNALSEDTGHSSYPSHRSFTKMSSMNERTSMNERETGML
Where a SMILES comes first, the peptide text is derived from it. [ ]: non-standard residue; d: D form. The star is where a group is joined. DOTA = O=C(O)CN1CCN(CC(=O)O)CCN(CC(=O)*)CCN(CC(=O)O)CC1; Hyp = O=C(O)[C@@H]1C[C@@H](O)CN1; Tic = O=C(O)[C@@H]1Cc2ccccc2CN1; Cha = N[C@@H](CC1CCCCC1)C(=O)O; Cit = NC(=O)NCCC[C@H](N)C(=O)O; Octanoyl = CCCCCCCC(=O)*; Ahx = NCCCCCC(=O)O
In this section we review reported IC50 values for a set of compounds.

{"Compound": "CCCCCCCC(=O)NCCCC[C@H](NC(=O)CN1CCN(CC(=O)O)CCN(CC(=O)O)CCN(CC(=O)O)CC1)C(=O)N[C@@H](Cc1ccc(O)cc1)C(=O)N[C@@H](CC1CCCCC1)C(=O)N1C[C@H](O)C[C@H]1C(=O)NCC(=O)N[C@@H](CCCNC(N)=O)C(=O)N[C@@H](Cc1ccccc1)C(=O)N[C@H](C)C(=O)N1Cc2ccccc2C[C@H]1C(=O)N[C@@H](CO)C(=O)O [DOTA-KCap-CG34] ({DOTA}-K(Octanoyl)Y[Cha][Hyp]G[Cit]F[dA][Tic]S-OH)", "IC50": "0.44 nM"}
{"Compound": "C[C@@H](NC(=O)[C@H](Cc1ccccc1)NC(=O)[C@H](CCCNC(N)=O)NC(=O)CNC(=O)[C@@H]1C[C@@H](O)CN1C(=O)[C@H](CC1CCCCC1)NC(=O)[C@@H](N)Cc1ccc(O)cc1)C(=O)N1Cc2ccccc2C[C@H]1C(=O)N[C@@H](CO)C(=O)O [CG34] (H-Y[Cha][Hyp]G[Cit]F[dA][Tic]S-OH)", "IC50": "1 nM"}
{"Compound": "CSCC[C@H](NC(=O)CNC(=O)[C@@H]1CCCN1C(=O)[C@H](CC1CCCCC1)NC(=O)[C@H](Cc1ccc(O)cc1)NC(=O)CCCCCNC(=O)CN1CCN(CC(=O)O)CCN(CC(=O)O)CCN(CC(=O)O)CC1)C(=O)N[C@@H](Cc1ccc(O)cc1)C(=O)N[C@@H](C)C(=O)N[C@@H](Cc1ccccc1)C(=O)N[C@H](Cc1ccccc1)C(=O)O [DOTA-AHX-CG36] ({DOTA-Ahx}-Y[Cha]PGMYAF[dF]-OH)", "IC50": "0.13 nM"}
